This collection of values is drawn from the supplement of paper PMC10126150.

Field: switch fluorescence ratio. Provide a value for each of the sequences that follow.
- Test system: ATP;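 further: ATP exposure 15 min at 22 °C before imaging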
- assay remarks: switch fluorescence ratio, 500 uM ATP over buffer (Cy3 cluster intensity, sum of 5 cycles each) (fold (ratio)); higher = stronger signal-on switching upon ATP binding; sequences stand for … in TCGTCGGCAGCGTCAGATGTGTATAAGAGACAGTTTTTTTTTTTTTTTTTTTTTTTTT…TC
- condition info: aptamer strand: ATP DNA aptamer (quencher-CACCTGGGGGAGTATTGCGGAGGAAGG + anchor), 100 nM annealed; ATP concentration: 500 uM
Give bare numbers.

Some solved cases for reference:
sequence chain	obs value
TTTAGGGGCT	0.976
CCTGGGCGTC	1.04
TTTTAAAATG	1.01
AAAATCGACC	1.08
CGGGCAGGTA	1.04

Could you report switch fluorescence ratio for every entry in the following list?
1. ACTATCGAAA
2. ATGTTCTTCT
3. TTTGCCTCCG
4. ATTTTCTTTG
5. CGGAGGGGTC
6. TAGAGCTGCA
7. AAGGGGGGGG

1: 1.09; 2: 0.982; 3: 2.15; 4: 0.996; 5: 1.02; 6: 1.02; 7: 1.02

Your task in this section: give switch fluorescence ratio for each listed record.
1. TTTCGATTGC
2. TAATCGGCTG
3. TGGGGGACTT
4. TGCAGTGTGG
5. ATCTCTTTTA
6. ACTACAGACG

1: 1; 2: 0.991; 3: 0.99; 4: 1; 5: 0.954; 6: 1.11

Hi there! I need switch fluorescence ratio for each item below, if you can.
1. TTTGCCTCGG
2. GGGCTAAAGG
3. GGTGTTGTG
4. TGGTTTTAGA
5. CTGATGGTAG
6. TTTTGAAGGT
7. CGAGGGATGG

1. 0.984
2. 1.04
3. 0.974
4. 0.999
5. 1.01
6. 0.997
7. 0.977

Okay, here is my list. What is switch fluorescence ratio for each of these?
1. CCCTTGCGGT
2. AGCCTACGGG
3. GTATCTTACT
4. CCTGCGTTTT

1. 1.03
2. 1.05
3. 1.01
4. 1.75

====

- System: ATP;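 further: ATP exposure 15 min at 22 °C before imaging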
- assay remarks: switch fluorescence ratio, 500 uM ATP over buffer (Cy3 cluster intensity, sum of 5 cycles each) (fold (ratio)); higher = stronger signal-on switching upon ATP binding; sequences stand for … in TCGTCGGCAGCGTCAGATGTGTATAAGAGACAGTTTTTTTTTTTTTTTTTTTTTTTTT…TC
- condition info: aptamer strand: ATP DNA aptamer (quencher-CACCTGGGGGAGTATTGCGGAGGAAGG + anchor), 100 nM annealed; ATP concentration: 500 uM
readout label: switch fluorescence ratio
Answers are plain numbers.

Consider the reported switch fluorescence ratio for these sequences:
sequence chain	readout label	obs value
GGGTTCATGG	switch fluorescence ratio	1.01
ACCATATTTT	switch fluorescence ratio	1.07

Dear colleague, could you send me switch fluorescence ratio for each of the items below? Thanks.
1. GTGAATAGAG
2. CCGGGGTCGT

1: 1; 2: 1.02

====

Would you mind telling me the reported switch fluorescence ratio of each entry?
- Test system: ATP;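 further: ATP exposure 15 min at 22 °C before imaging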
- assay remarks: switch fluorescence ratio, 500 uM ATP over buffer (Cy3 cluster intensity, sum of 5 cycles each) (fold (ratio)); higher = stronger signal-on switching upon ATP binding; sequences stand for … in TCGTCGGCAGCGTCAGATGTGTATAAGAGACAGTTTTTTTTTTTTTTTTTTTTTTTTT…TC
- condition info: aptamer strand: ATP DNA aptamer (quencher-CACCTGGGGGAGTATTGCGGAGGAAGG + anchor), 100 nM annealed; ATP concentration: 500 uM
Answers are plain numbers.

Record switch fluorescence ratio per entry; entries follow.
1. TGTTGGTTAG
2. CCTGGGGTCT
3. CTGGCGGAAA
4. AGATGCCTGA
5. TTCCGGGCTG
6. GCTGTGTCCA

[0.989, 1.03, 1.05, 0.989, 1, 0.993]
